Consider the following molecules and their measured IC50 readings.
- measured.target: COX-2 (Homo sapiens)
- Sequence (P35354 18-604): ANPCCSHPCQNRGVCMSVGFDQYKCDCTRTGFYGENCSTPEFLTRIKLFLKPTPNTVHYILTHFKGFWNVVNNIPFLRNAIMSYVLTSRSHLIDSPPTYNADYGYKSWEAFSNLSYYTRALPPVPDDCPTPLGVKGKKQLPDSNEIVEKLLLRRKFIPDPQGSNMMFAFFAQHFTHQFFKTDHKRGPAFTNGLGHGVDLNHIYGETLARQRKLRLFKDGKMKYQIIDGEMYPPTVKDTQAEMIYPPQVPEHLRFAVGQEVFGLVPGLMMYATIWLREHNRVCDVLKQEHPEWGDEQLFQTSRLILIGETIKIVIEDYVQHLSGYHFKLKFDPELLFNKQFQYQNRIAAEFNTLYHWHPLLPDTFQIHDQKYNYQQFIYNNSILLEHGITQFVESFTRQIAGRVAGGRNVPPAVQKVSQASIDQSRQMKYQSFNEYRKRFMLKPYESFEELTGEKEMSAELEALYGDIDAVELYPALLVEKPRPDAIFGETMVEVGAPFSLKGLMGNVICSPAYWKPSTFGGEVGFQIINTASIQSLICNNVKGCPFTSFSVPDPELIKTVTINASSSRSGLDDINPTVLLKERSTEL
- test.protocol: Human whole blood assay, COX-2 (LPS-induced PGE2 production)
- Type: cell-based
- Design: endogenous in cells; host or cells: fresh heparinized human whole blood from volunteers, induced with LPS
- experimental.conditions: Table IV; human whole blood, LPS, 24 hours; read-out: COX-2(IC50, µM) HWB
Field format: number, assumed µM, no unit text.

1. C[C@]1(CC(F)(F)F)OC(=O)C(Oc2ccc(Br)cc2)=C1c1ccc(S(C)(=O)=O)cc1 [Example 189] ... 0.28
2. CC1(C)OC(=O)C(Oc2ccc3ncsc3c2)=C1c1ccc(S(C)(=O)=O)cc1 [Example 159] ... 0.26
3. CC(C)OC1=C(c2ccc(S(C)(=O)=O)cc2)C(C)(CC(F)(F)F)OC1=O (stereo not shown) [Example 136] ... 1.3
4. CC[C@@]1(C)OC(=O)C(Oc2ccc(OC)c(Cl)c2)=C1c1ccc(S(C)(=O)=O)cc1 [Example 186] ... 6.5
5. CC1(C)OC(=O)C(Oc2cccc(C(F)(F)F)c2)=C1c1ccc(S(C)(=O)=O)cc1 [Example 110] ... 3

For record C[C@]1(CC(F)(F)F)OC(=O)C(Oc2ccc(F)cc2)=C1c1ccc(S(C)(=O)=O)cc1 [Example 166] the listed IC50 is 0.28

Lab book: IC50 of CC1(C)OC(=O)C(Oc2cccc(N)n2)=C1c1ccc(S(C)(=O)=O)cc1 [Example 53] noted as 3

IC50 for CCCC1(C)OC(=O)C(OC(C)C)=C1c1ccc(S(C)(=O)=O)cc1 (stereo not shown) [Example 179] is 2.7

Lab note: measured IC50 of CC[C@@]1(C)OC(=O)C(OC(C)C)=C1c1ccc(S(C)(=O)=O)cc1 [Example 140] was 0.54

Lab book: IC50 of CC[C@@]1(C)OC(=O)C(Oc2ccc(Cl)c(C)c2)=C1c1ccc(S(C)(=O)=O)cc1 [Example 199] noted as 0.87

Record Cc1cc(OC2=C(c3ccc(S(C)(=O)=O)cc3)C(C)(C)OC2=O)ccc1Cl [Example 200] , field IC50: 0.13

For record Cc1ccc(OC2=C(c3ccc(S(C)(=O)=O)cc3)C(C)(C)OC2=O)cn1 [Example 39] the listed IC50 is 0.08
